Cited source for all entries: the Immune Epitope Database (IEDB)

study-target: HLA-A*02:01
experimental-details: IEDB peptide-MHC binding, purified MHC/competitive/radioactivity; bounds were set here for any values at or beyond the usual limits of such assays
measurement-parameters: source organism: Toxoplasma gondii
endpoint: IC50 (µM)
Field format: number, assumed µM, no unit text.

The measured IC50 associated with STFWPCLLR reads 27

====

study-target: HLA-B*45:01
experimental-details: IEDB peptide-MHC binding, purified MHC/competitive/radioactivity; filed as Kd, often an IC50 or EC50 that approximates it; bounds were set here for any values at or beyond the usual limits of such assays
measurement-parameters: source organism: SARS coronavirus Tor2
endpoint: log10 of Kd (log10 of the value in nM)
// stored as log10 of Kd expressed in nM

Some solved entries appear below for comparison.
1) GEILLLEWLA : 1.24
2) RELYLNSSNV : 1.98
3) NEYTGNYQCG : 3.25

Known value: HLA-B*45:01 log10 of Kd of the sequence TEVMPVSMA equals 2.26

Known value: HLA-B*45:01 log10 of Kd of the sequence MEKLKALVA equals 1.38
